List of pEC50 values.
Molecular target: Peroxisome proliferator-activated receptor delta (Homo sapiens, UniProt Q03181)
Sequence (Q03181 whole entry): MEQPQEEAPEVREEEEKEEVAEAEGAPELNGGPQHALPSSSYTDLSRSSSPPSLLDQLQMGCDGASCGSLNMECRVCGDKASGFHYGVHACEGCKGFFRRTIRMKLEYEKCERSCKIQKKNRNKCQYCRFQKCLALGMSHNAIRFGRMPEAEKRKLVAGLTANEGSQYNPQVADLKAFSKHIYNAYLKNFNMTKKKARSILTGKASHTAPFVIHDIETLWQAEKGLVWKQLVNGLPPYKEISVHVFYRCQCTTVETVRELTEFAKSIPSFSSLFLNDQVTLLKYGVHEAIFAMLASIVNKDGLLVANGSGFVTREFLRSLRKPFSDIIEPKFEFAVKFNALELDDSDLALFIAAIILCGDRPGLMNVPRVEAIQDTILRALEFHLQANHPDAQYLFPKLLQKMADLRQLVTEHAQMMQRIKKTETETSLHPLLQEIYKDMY
Test: Agonist activity at PPARdelta expressed in HEK293 cells by GAL4 transactivation assay
Reminder that pEC50 means the negative base-10 logarithm of the concentration expressed in mol/L.

| compound | study_target | pEC50 |
| --- | --- | --- |
| CCN(C(=O)Nc1ccc(OC(F)(F)F)cc1)[C@@H]1Cc2ccc(SC(C)(C)C(=O)O)cc2C1 | Peroxisome proliferator-activated receptor delta (Homo sapiens, UniProt Q03181) | 5.68 |

Moving on to the next compound.
Prompt line: Consider the compound CCCCCCCN(CCc1ccc(SC(C)(C)C(=O)O)cc1)C(=O)Nc1ccc(F)cc1F [GSK-9578] and give its measured pEC50.
Response line: 6.82

---

Assay: Cmax in Sprague-Dawley rat at 3 mg/kg, iv or 30 mg/kg, po
Assay type: ADME, organism-based
Conditions: in vivo
The compounds listed here are annotated with their log10(Cmax).
log10 Cmax, ng/mL

Past entries and their recorded results:
| compound | attribute_measured | value_observed |
| --- | --- | --- |
| CCCCCN(C(=O)Nc1ccc(N(C)C)cc1)C1Cc2ccc(SC(C)(C)C(=O)O)cc2C1 (configuration not stated) | log10(Cmax) | 4.32 |
| CCN(C(=O)Nc1ccc(N(C)C)cc1)C1Cc2ccc(SC(C)(C)C(=O)O)cc2C1 (configuration not stated) | log10(Cmax) | 4.86 |
| CCN(C(=O)Nc1ccc(OC(F)(F)F)cc1)C1Cc2ccc(SC(C)(C)C(=O)O)cc2C1 (configuration not stated) | log10(Cmax) | 4.59 |
| CCN(C(=O)Nc1ccc(C(C)C)cc1)C1Cc2ccc(SC(C)(C)C(=O)O)cc2C1 (configuration not stated) | log10(Cmax) | 4.51 |
| CCCCCN(C(=O)Nc1ccc(OC(F)(F)F)cc1)C1Cc2ccc(SC(C)(C)C(=O)O)cc2C1 (configuration not stated) | log10(Cmax) | 4.22 |
| CCCCCN(C(=O)Nc1ccc(SC(F)(F)F)cc1)C1Cc2ccc(SC(C)(C)C(=O)O)cc2C1 (configuration not stated) | log10(Cmax) | 3.90 |

Prompt line: What does the record list as log10(Cmax) for CCN(C(=O)Nc1ccc(SC(F)(F)F)cc1)C1Cc2ccc(SC(C)(C)C(=O)O)cc2C1 (configuration not stated) ?
Response line: 3.75

---

Molecular target: Peroxisome proliferator-activated receptor alpha (Rattus norvegicus, UniProt P37230)
Sequence (P37230 whole entry): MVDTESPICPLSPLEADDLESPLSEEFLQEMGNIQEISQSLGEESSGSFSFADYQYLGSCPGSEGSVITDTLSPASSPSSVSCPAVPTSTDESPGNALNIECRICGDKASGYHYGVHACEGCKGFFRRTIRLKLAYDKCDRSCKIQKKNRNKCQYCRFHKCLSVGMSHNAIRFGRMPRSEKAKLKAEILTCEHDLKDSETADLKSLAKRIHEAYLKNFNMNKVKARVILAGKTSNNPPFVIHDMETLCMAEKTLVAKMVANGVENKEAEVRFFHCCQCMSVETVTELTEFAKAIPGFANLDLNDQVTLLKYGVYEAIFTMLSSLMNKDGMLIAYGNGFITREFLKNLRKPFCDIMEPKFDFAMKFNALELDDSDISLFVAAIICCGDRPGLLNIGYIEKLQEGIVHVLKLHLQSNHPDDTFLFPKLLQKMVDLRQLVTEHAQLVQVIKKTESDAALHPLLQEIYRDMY
Assay: Agonist activity at rat PPARalpha in rat H4IIE cells assessed as gene induction
attribute_measured: log10 of EC50 (log10 of the value in nM)
Give log10 of EC50, with EC50 taken in nM.

| compound | log10 of EC50 |
| --- | --- |
| CC(C)(Sc1ccc2c(c1)C[C@@H](NC(=O)Nc1ccc(OC(F)(F)F)cc1)C2)C(=O)O | 3.05 |

Next compound, please.
Prompt line: I have this compound here, CCCCCCCN(C(=O)Nc1ccc(OC(F)(F)F)cc1)[C@@H]1Cc2ccc(SC(C)(C)C(=O)O)cc2C1 , and I need its recorded log10 of EC50.
Response line: 2.23

---

Target: Peroxisome proliferator-activated receptor alpha (Rattus norvegicus)
Test: Agonist activity at rat PPARalpha in rat H4IIE cells assessed as gene induction
pEC50: −log10 of the molar value.
Response key: label 1 means pEC50 >= 6; label 0 means pEC50 < 6.

| molecule | class_label |
| --- | --- |
| CCN(C(=O)Nc1ccc(OC(F)(F)F)cc1)C1Cc2ccc(SC(C)(C)C(=O)O)cc2C1 (stereo not given) | label 1 |

Prompt line: # bool: pEC50 of CC(C)CN(C(=O)Nc1ccc(OC(F)(F)F)cc1)C1Cc2ccc(SC(C)(C)C(=O)O)cc2C1 (stereo not given) >= 6
Response line: label 0

Prompt line: # repeat for CCCCCCCN(C(=O)Nc1cccc(C(F)(F)F)c1)C1Cc2ccc(SC(C)(C)C(=O)O)cc2C1 (stereo not given)
Response line: label 0

Prompt line: Note, next up: CCCCCN(C(=O)Nc1ccc(C(C)C)cc1)C1Cc2ccc(SC(C)(C)C(=O)O)cc2C1 (stereo not given)
Response line: label 1

---

Biological target: Peroxisome proliferator-activated receptor gamma (Homo sapiens, UniProt P37231)
Sequence (P37231 whole entry): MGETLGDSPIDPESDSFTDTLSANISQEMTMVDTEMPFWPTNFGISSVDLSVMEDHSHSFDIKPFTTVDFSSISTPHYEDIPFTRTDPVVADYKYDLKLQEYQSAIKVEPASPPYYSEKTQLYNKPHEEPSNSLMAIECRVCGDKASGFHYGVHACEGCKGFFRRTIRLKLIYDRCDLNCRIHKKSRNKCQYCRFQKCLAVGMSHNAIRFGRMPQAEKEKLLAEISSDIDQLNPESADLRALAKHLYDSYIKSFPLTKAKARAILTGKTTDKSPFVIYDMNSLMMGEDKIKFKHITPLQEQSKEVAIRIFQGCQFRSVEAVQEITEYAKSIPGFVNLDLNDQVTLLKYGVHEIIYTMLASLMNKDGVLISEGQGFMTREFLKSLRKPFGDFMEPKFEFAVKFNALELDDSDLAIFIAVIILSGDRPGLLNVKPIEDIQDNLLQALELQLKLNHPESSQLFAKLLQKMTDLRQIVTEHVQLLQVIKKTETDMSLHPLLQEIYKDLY
pEC50: −log10 of the molar value.
attribute_measured: pEC50

Prompt line: Please tell me: pEC50 of CCN(C(=O)Nc1ccc(OC(F)(F)F)cc1)[C@@H]1Cc2ccc(SC(C)(C)C(=O)O)cc2C1 , system Peroxisome proliferator-activated receptor gamma (Homo sapiens, UniProt P37231)?
Response line: < 5.00

---

Measured half-life at 5 µM by item
Assay: Metabolic stability in human liver microsomes at 5 uM
Type: ADME, Microsome
Give the number; h is assumed, so skip it.

Prompt line: Return reported half-life at 5 µM; argument: CCN(C(=O)Nc1ccc(N(C)C)cc1)C1Cc2ccc(SC(C)(C)C(=O)O)cc2C1 (configuration not stated)
Response line: 1.33

Prompt line: Another compound to look at: CCN(C(=O)Nc1ccc(OC(F)(F)F)cc1)C1Cc2ccc(SC(C)(C)C(=O)O)cc2C1 (configuration not stated)
Response line: 1.67

Prompt line: Entry to check: CCCCCN(C(=O)Nc1ccc(N(C)C)cc1)C1Cc2ccc(SC(C)(C)C(=O)O)cc2C1 (configuration not stated)
Response line: 1.57

---

Experiment: Oral bioavailability in Sprague-Dawley rat at 30 mg/kg
Assay type: ADME, organism-based
Details: in vivo
Let's look at some compounds and their measured bioavailability.
Param answer (str): number followed by unit.

For orientation, consider the following solved cases.
| compound | value_observed |
| --- | --- |
| CCCCCN(C(=O)Nc1ccc(N(C)C)cc1)C1Cc2ccc(SC(C)(C)C(=O)O)cc2C1 (configuration not stated) | 62% |
| CCCCCN(C(=O)Nc1ccc(SC(F)(F)F)cc1)C1Cc2ccc(SC(C)(C)C(=O)O)cc2C1 (configuration not stated) | 59% |
| CCCCCN(C(=O)Nc1ccc(OC(F)(F)F)cc1)C1Cc2ccc(SC(C)(C)C(=O)O)cc2C1 (configuration not stated) | 24% |
| CCN(C(=O)Nc1ccc(OC(F)(F)F)cc1)C1Cc2ccc(SC(C)(C)C(=O)O)cc2C1 (configuration not stated) | 59% |
| CCN(C(=O)Nc1ccc(SC(F)(F)F)cc1)C1Cc2ccc(SC(C)(C)C(=O)O)cc2C1 (configuration not stated) | 100% |

Prompt line: Return reported bioavailability; argument: CCN(C(=O)Nc1ccc(N(C)C)cc1)C1Cc2ccc(SC(C)(C)C(=O)O)cc2C1 (configuration not stated)
Response line: 58%

Prompt line: And for CCN(C(=O)Nc1ccc(C(C)C)cc1)C1Cc2ccc(SC(C)(C)C(=O)O)cc2C1 (configuration not stated) ?
Response line: 34%

---

Recorded EC50 for the following molecules
Biological target: Peroxisome proliferator-activated receptor alpha (Rattus norvegicus, UniProt P37230)
Sequence (P37230 whole entry): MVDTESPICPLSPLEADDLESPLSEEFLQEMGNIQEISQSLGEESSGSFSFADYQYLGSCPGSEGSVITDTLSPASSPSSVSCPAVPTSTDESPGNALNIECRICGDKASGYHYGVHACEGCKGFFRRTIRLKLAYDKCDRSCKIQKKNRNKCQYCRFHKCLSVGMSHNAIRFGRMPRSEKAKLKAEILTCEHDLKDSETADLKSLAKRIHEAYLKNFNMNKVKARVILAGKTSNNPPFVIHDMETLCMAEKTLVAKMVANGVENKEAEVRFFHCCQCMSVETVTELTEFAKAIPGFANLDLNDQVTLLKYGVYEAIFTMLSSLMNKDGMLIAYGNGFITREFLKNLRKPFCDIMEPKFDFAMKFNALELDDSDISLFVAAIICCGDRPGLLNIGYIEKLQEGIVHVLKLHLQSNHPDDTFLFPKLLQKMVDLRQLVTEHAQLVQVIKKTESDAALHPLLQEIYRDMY
Assay: Agonist activity at rat PPARalpha in rat H4IIE cells assessed as gene induction
Give your result in nM as a bare value.

Examples from the recorded data:
| molecule | EC50, nM |
| --- | --- |
| CCCCN(C(=O)Nc1ccc(N(C)C)cc1)C1Cc2ccc(SC(C)(C)C(=O)O)cc2C1 (stereo not given) | 561 |
| CCCCCCCN(C(=O)Nc1ccccc1C(F)(F)F)C1Cc2ccc(SC(C)(C)C(=O)O)cc2C1 (stereo not given) | 6390 |
| CC(C)(Sc1ccc2c(c1)CC(N(CCCC(F)(F)F)C(=O)Nc1ccc(OC(F)(F)F)cc1)C2)C(=O)O (stereo not given) | 707 |

Prompt line: Under Peroxisome proliferator-activated receptor alpha (Rattus norvegicus, UniProt P37230): EC50 value of CCCCCCN(C(=O)Nc1ccc(C(C)C)cc1)C1Cc2ccc(SC(C)(C)C(=O)O)cc2C1 (stereo not given) ?
Response line: 180
